# System: Tetranychus cinnabarinus mite eggs
# test_name: Activity against mite eggs, dipping method on bean seedling leaves
# Assay type: in vivo
# experimental_conditions: Tetranychus cinnabarinus, 96 h, read-out: mortality of mite eggs (%), 0.01 mg/L; checked after 4 days
# Source text: The assay examples are used to illustrate the acaricidal activity against Tetranychus cinnabarinus (mortality of mite larvae and mortality of mite eggs) of the compounds having the structure represented by formula (I), and the results are shown in tables 1 to 9, where mortality of mite larvae % =(number of dead mite larvae applied/total number of mite larvae applied)×100, and mortality of mite eggs %= (number of dead mite eggs applied/total number of mite eggs applied)×100. […]
recorded_endpoint: mortality at 0.01 µg/mL

Q) Answer with the recorded mortality at 0.01 µg/mL of Cc1cccc2ccn(Cc3ccc(C4COC(c5c(F)cccc5F)=N4)cc3)c12 (stereo not drawn) only.
A) 30%

Q) State its mortality at 0.01 µg/mL for this compound: Fc1cccc(F)c1C1=NC(c2ccc(Cn3ccc4ccccc43)cc2)CO1 (stereo not drawn)
A) 35%

Q) Fill in mortality at 0.01 µg/mL for record C=C(C)COCc1ccc(C2COC(c3c(F)cccc3F)=N2)cc1 (stereo not drawn)
A) 60%

Q) Quote mortality at 0.01 µg/mL reported for O=C1c2ccccc2C(=O)N1Cc1ccc(C2COC(c3c(F)cccc3F)=N2)cc1 (stereo not drawn) please.
A) 40%

Q) Fill in mortality at 0.01 µg/mL for record Fc1cccc(F)c1C1=NC(c2ccc(COCC(F)(F)F)cc2)CO1 (stereo not drawn)
A) 70%

Q) For the compound CCCOCc1ccc(C2COC(c3c(F)cccc3F)=N2)cc1 (stereo not drawn) , give its reported mortality at 0.01 µg/mL.
A) 77%

* * *

# Tested on: Tetranychus cinnabarinus mite larvae
# test_name: Larvicidal activity test, dipping method on bean seedling leaves
# Assay type: in vivo
# experimental_conditions: Tetranychus cinnabarinus, 96 h, read-out: mortality of mite larvae (%), 10 mg/L; checked after 4 days
recorded_endpoint: mortality at 10 µg/mL (%)
State the answer as a number, implicitly in %.

Q) Fetch value of mortality at 10 µg/mL on Tetranychus cinnabarinus mite larvae for Fc1cccc(F)c1C1=NC(c2ccc(CN3CCc4ccccc4C3)cc2)CO1 (stereo not shown) .
A) 70

Q) Give mortality at 10 µg/mL for this entry on Tetranychus cinnabarinus mite larvae: Cc1ccc(S(=O)(=O)Oc2ccc(C3COC(c4c(F)cccc4F)=N3)cc2)cc1 (stereo not shown)
A) 85

Q) Enter recorded mortality at 10 µg/mL with Tetranychus cinnabarinus mite larvae for Cc1ccc2c(ccn2Cc2ccc(C3COC(c4c(F)cccc4F)=N3)cc2)c1 (stereo not shown) here.
A) 65

Q) # return mortality at 10 µg/mL for Fc1cccc(F)c1C1=NC(c2ccc(Cn3cccn3)cc2)CO1 (stereo not shown) , test system: Tetranychus cinnabarinus mite larvae
A) 40

Q) Report its mortality at 10 µg/mL with Tetranychus cinnabarinus mite larvae as the test system: COCc1ccc(C2COC(c3c(F)cccc3F)=N2)cc1 (stereo not shown)
A) 100

Q) # return mortality at 10 µg/mL of Fc1cccc(F)c1C1=NC(c2ccc(CN3CCCCCCC3)cc2)CO1 (stereo not shown) (system: Tetranychus cinnabarinus mite larvae)
A) 70

Q) Report value: mortality at 10 µg/mL, system: Tetranychus cinnabarinus mite larvae, compound: O=S(=O)(Oc1ccc(C2COC(c3c(F)cccc3F)=N2)cc1)c1ccc(F)cc1 (stereo not shown)
A) 90

Q) # assay system Tetranychus cinnabarinus mite larvae: give mortality at 10 µg/mL of Fc1cccc(F)c1C1=NC(c2ccc(CN3CC=CC3)cc2)CO1 (stereo not shown)
A) 70

Q) Fetch value of mortality at 10 µg/mL on Tetranychus cinnabarinus mite larvae for Fc1cccc(F)c1C1=NC(c2ccc(Cn3ccc4cc(Cl)ccc43)cc2)CO1 (stereo not shown) .
A) 80

Q) Write down the reported mortality at 10 µg/mL (system: Tetranychus cinnabarinus mite larvae) of CCCS(=O)(=O)Oc1ccc(C2COC(c3c(F)cccc3F)=N2)cc1 (stereo not shown)
A) 100

Q) # lookup: Tetranychus cinnabarinus mite larvae mortality at 10 µg/mL, key = Cc1ccc(OCc2ccc(C3COC(c4c(F)cccc4F)=N3)cc2)cc1 (stereo not shown)
A) 88

Q) Provide the reported mortality at 10 µg/mL (system: Tetranychus cinnabarinus mite larvae) for Fc1ccc(OCc2ccc(C3COC(c4c(F)cccc4F)=N3)cc2)cc1 (stereo not shown)
A) 88

Q) Under Tetranychus cinnabarinus mite larvae: report mortality at 10 µg/mL of C=CS(=O)(=O)Oc1ccc(C2COC(c3c(F)cccc3F)=N2)cc1 (stereo not shown) .
A) 80

Q) Give mortality at 10 µg/mL for Fc1cccc(F)c1C1=NC(c2ccc(Cn3ccc4c(F)cccc43)cc2)CO1 (stereo not shown) tested on Tetranychus cinnabarinus mite larvae.
A) 70

Q) Find the measured mortality at 10 µg/mL of Fc1cccc(F)c1C1=NC(c2ccc(COc3ccccn3)cc2)CO1 (stereo not shown) with Tetranychus cinnabarinus mite larvae as test system.
A) 95

Q) With Tetranychus cinnabarinus mite larvae as the test system, provide measured mortality at 10 µg/mL for this compound: CCCOCc1ccc(C2COC(c3c(F)cccc3F)=N2)cc1 (stereo not shown)
A) 97

Q) Find the measured mortality at 10 µg/mL of CS(=O)(=O)Oc1ccc(C2COC(c3c(F)cccc3F)=N2)cc1 (stereo not shown) with Tetranychus cinnabarinus mite larvae as test system.
A) 100

Q) Param request: mortality at 10 µg/mL | system Tetranychus cinnabarinus mite larvae | item O=S(=O)(Oc1ccc(C2COC(c3c(F)cccc3F)=N2)cc1)c1ccc(I)cc1 (stereo not shown)
A) 88

Q) Fill in mortality at 10 µg/mL for CCOCc1ccc(C2COC(c3c(F)cccc3F)=N2)cc1 (stereo not shown) tested with Tetranychus cinnabarinus mite larvae.
A) 90
